Kindly state CC50 at 3 days for each of the entries shown.
Assay: in vitro
Details: dog, TOX MDCK CC50
A number alone suffices; assume µM.

Ask: Request the reported CC50 at 3 days associated with CC(C)(C)[C@H](CC(=O)O)Nc1nc(-c2c[nH]c3c(F)cc(F)cc23)c(C#N)cc1F
Reply: 0.24

Ask: What value of CC50 at 3 days has been recorded for this entry: CC(C)(c1nccs1)C(CC(=O)O)Nc1nc(-c2c[nH]c3c(F)cc(F)cc23)c(C#N)cc1F (stereo not drawn)
Reply: 0.3

Ask: Looking for the measured CC50 at 3 days of Cn1nc(NS(C)(=O)=O)cc1C(=O)N[C@@H]1CCC[C@H](Nc2nc(-c3c[nH]c4c(F)cc(F)cc34)ncc2F)C1 (relative stereo) , can you help?
Reply: 17.5

Ask: Can you share its CC50 at 3 days? I mean this molecule: O=C(N[C@@H]1CCC[C@H](Nc2nc(-c3c[nH]c4c(F)cc(Cl)cc34)ncc2F)C1)c1ncccc1O
Reply: 8.7

Ask: For the molecule shown here, O=C(N[C@@H]1CCC[C@H](Nc2nc(-c3c[nH]c4c(F)cc(Cl)cc34)ncc2F)C1)c1ncc[nH]1 , give the reported CC50 at 3 days.
Reply: 3.5

Ask: Quick one: CC50 at 3 days of Cn1nc(C(=O)N[C@@H]2CCC[C@H](Nc3nc(-c4c[nH]c5c(F)cc(Cl)cc45)ncc3F)C2)cc1N ?
Reply: 3.9

---

Experiment: in vitro
Conditions: dog, TOX MDCK CC50
Exercise: state measured CC50 at 3 days for each of the compounds provided.
Give just the number in µM; leave the unit off.

Ask: CC50 at 3 days lookup needed for O=C(N[C@@H]1CCC[C@H](Nc2nc(-c3c[nH]c4c(F)cc(F)cc34)ncc2F)C1)c1cc(=O)[nH][nH]1 , thanks.
Reply: 13

Ask: Returns the measured CC50 at 3 days for the input compound. Input: O=C(N[C@@H]1CCC[C@H](Nc2nc(-c3c[nH]c4c(F)cc(F)cc34)ncc2F)C1)c1ccccn1 (racemic)
Reply: 10.9

Ask: Consider the compound shown here: O=C(O)[C@@H]1CCCC[C@@H]1Nc1nc(-c2c[nH]c3c(F)cc(F)cc23)ncc1F What is its recorded CC50 at 3 days?
Reply: 14.7

Ask: Give the measured CC50 at 3 days of Cc1cc(F)c2[nH]cc(-c3ncc(F)c(N[C@H]4C5CCC(CC5)[C@@H]4C(=O)O)n3)c2c1 (racemic) [Compound 164] .
Reply: 1.7

Ask: Given the entry CC1(C(CC(=O)O)Nc2nc(-c3c[nH]c4c(F)cc(F)cc34)c(C#N)cc2F)CCOCC1 (centres unmarked) , report its measured CC50 at 3 days.
Reply: 5.3

Ask: I'd like to know its CC50 at 3 days. The compound in question is O=C(N[C@@H]1CCC[C@H](Nc2nc(-c3c[nH]c4c(F)cc(C(F)(F)F)cc34)ncc2F)C1)c1ccccn1 (racemic)
Reply: 3.9

Ask: Consider the compound shown here: C[C@H]1CC[C@H](C)N1C(=O)N[C@H]1CCC[C@@H](Nc2nc(-c3c[nH]c4c(F)cc(F)cc34)ncc2F)C1 (relative stereo) What is its recorded CC50 at 3 days?
Reply: 10.4

Ask: Quick check: CC50 at 3 days of O=C(N[C@@H]1CCC[C@H](Nc2nc(-c3c[nH]c4c(F)cc(Cl)cc34)ncc2F)C1)c1c[nH]cn1 ?
Reply: 8.9

Ask: Param item = Cc1c(C(=O)N[C@@H]2CCC[C@H](Nc3nc(-c4c[nH]c5c(F)cc(F)cc45)ncc3F)C2)nnn1C ; retrieve measured CC50 at 3 days.
Reply: 8.7

Ask: What CC50 at 3 days value was documented for this compound, CCn1ccnc1C(=O)N[C@@H]1CCC[C@H](Nc2nc(-c3c[nH]c4c(F)cc(Cl)cc34)ncc2F)C1 ?
Reply: 2.8

Ask: Request the reported CC50 at 3 days associated with N#Cc1cc(F)c(N[C@H]2CCC[C@@H](NC(=O)[C@@H](O)c3ccccc3)C2)nc1-c1c[nH]c2c(F)cc(F)cc12
Reply: 3.4

Ask: Endpoint output: CC50 at 3 days of Cc1cc(C(=O)N[C@@H]2CCC[C@H](Nc3nc(-c4c[nH]c5c(F)cc(F)cc45)ncc3F)C2)n[nH]1 . Value?
Reply: 18

---

Kindly state log10 CC50 at 3 days for each of the entries shown.
Assay: in vitro
Conditions: dog, TOX MDCK CC50
Use the decimal logarithm of CC50 at 3 days (µM).

Ask: Can you share its log10 CC50 at 3 days? I mean this compound: Cn1cc(Br)nc1C(=O)N[C@@H]1CCC[C@H](Nc2nc(-c3c[nH]c4c(F)cc(Cl)cc34)ncc2F)C1
Reply: 0.70

Ask: Would you kindly share the measured log10 CC50 at 3 days for Cc1cc(C(=O)N[C@@H]2CCC[C@H](Nc3nc(-c4c[nH]c5c(F)cc(Cl)cc45)ncc3F)C2)n[nH]1 ?
Reply: 0.43

Ask: What does the record list as log10 CC50 at 3 days for C=Cn1cnc(C(=O)N[C@@H]2CCC[C@H](Nc3nc(-c4c[nH]c5c(F)cc(F)cc45)ncc3F)C2)c1 ?
Reply: 0.86

Ask: Consider the compound shown here: Cc1sc(N)nc1C(=O)N[C@@H]1CCC[C@H](Nc2nc(-c3c[nH]c4c(F)cc(F)cc34)ncc2F)C1 What is its recorded log10 CC50 at 3 days?
Reply: 0.68

Ask: Query: log10 CC50 at 3 days; subject: Nc1n[nH]cc1C(=O)N[C@@H]1CCC[C@H](Nc2nc(-c3c[nH]c4c(F)cc(F)cc34)ncc2F)C1
Reply: 1.03

Ask: Find the recorded log10 CC50 at 3 days belonging to CN(C)c1ccnc(C(=O)N[C@@H]2CCC[C@H](Nc3nc(-c4c[nH]c5c(F)cc(F)cc45)ncc3F)C2)c1 and report it.
Reply: 1.20

Ask: // query log10 CC50 at 3 days value for entry Nc1n[nH]cc1C(=O)N[C@@H]1CCC[C@H](Nc2nc(-c3c[nH]c4c(F)cc(Cl)cc34)ncc2F)C1
Reply: 1.00

Ask: Value lookup for log10 CC50 at 3 days; key = Cc1cc(F)c2[nH]cc(-c3ncc(F)c(N[C@@H]4CCC[C@@H](NC(=O)c5cncn5C)C4)n3)c2c1 (racemic)
Reply: 0.99

Ask: Please give the measured log10 CC50 at 3 days for this compound: Nc1n[nH]c(C(=O)N[C@@H]2CCC[C@H](Nc3nc(-c4c[nH]c5c(F)cc(Cl)cc45)ncc3F)C2)n1
Reply: 1.02

Ask: Consider the compound Nc1cc(C(=O)N[C@@H]2CCC[C@H](Nc3nc(-c4c[nH]c5c(F)cc(F)cc45)ncc3F)C2)ncn1 and give its measured log10 CC50 at 3 days.
Reply: 1.06

Ask: Find the recorded log10 CC50 at 3 days belonging to O=C(N[C@@H]1CCC[C@H](Nc2nc(-c3c[nH]c4c(F)cc(F)cc34)ncc2F)C1)c1cscn1 and report it.
Reply: 1.20

Ask: Reported log10 CC50 at 3 days for CC(C)(C)C(Cc1nnn[nH]1)Nc1nc(-c2c[nH]c3c(F)cc(F)cc23)ncc1F (centres unmarked) : what is it?
Reply: 0.57

Ask: Entry O=C(N[C@H]1CCC[C@@H](Nc2nc(-c3c[nH]c4c(F)cc(F)cc34)c(C(F)(F)F)cc2F)C1)c1ncn[nH]1 (racemic) has what log10 CC50 at 3 days?
Reply: 0.41

Ask: Record request: log10 CC50 at 3 days value, item O=C(N[C@@H]1CCC[C@H](Nc2nc(-c3c[nH]c4c(F)cc(F)cc34)ncc2F)C1)C1CCCN1 (some centres unmarked)
Reply: 1.06

Ask: Endpoint output: log10 CC50 at 3 days of Cc1cc(F)c2[nH]cc(-c3ncc(F)c(N[C@@H](CC(=O)O)C(C)(C)C)n3)c2c1 . Value?
Reply: 0.36

Ask: # input compound: CC(C)(C)[C@@H](CC(=O)O)Nc1nc(-c2c[nH]c3c(F)cc(F)cc23)c(C(F)(F)F)cc1F (single isomer, unassigned) ; wanted: its log10 CC50 at 3 days
Reply: -0.68

---

Assay: in vitro
Conditions: dog, TOX MDCK CC50
Kindly state CC50 at 3 days for each of the entries shown.

Ask: Can you share its CC50 at 3 days? I mean this molecule: Cc1[nH]nnc1C(=O)N[C@@H]1CCC[C@H](Nc2nc(-c3c[nH]c4c(F)cc(Cl)cc34)ncc2F)C1
Reply: 5.7 µM

Ask: Find the recorded CC50 at 3 days belonging to O=C(N[C@@H]1CCC[C@H](Nc2nc(-c3c[nH]c4c(F)cc(F)cc34)ncc2F)C1)c1cccc(O)n1 and report it.
Reply: > 25 µM

Ask: Which measured CC50 at 3 days value corresponds to Cc1cc(F)c2[nH]cc(-c3nc(N[C@H]4CCC[C@@H](NC(=O)c5cn(C)cn5)C4)c(F)cc3C#N)c2c1 (racemic) ?
Reply: 6.6 µM

Ask: May I ask what CC50 at 3 days has been recorded for Cn1ncc(N)c1C(=O)N[C@@H]1CCC[C@H](Nc2nc(-c3c[nH]c4c(F)cc(Cl)cc34)ncc2F)C1 ?
Reply: > 25 µM
